Below is a list of entries, each paired with its recorded Ki value.
Target: hA1AR (Homo sapiens)
Sequence (P30542 1-326): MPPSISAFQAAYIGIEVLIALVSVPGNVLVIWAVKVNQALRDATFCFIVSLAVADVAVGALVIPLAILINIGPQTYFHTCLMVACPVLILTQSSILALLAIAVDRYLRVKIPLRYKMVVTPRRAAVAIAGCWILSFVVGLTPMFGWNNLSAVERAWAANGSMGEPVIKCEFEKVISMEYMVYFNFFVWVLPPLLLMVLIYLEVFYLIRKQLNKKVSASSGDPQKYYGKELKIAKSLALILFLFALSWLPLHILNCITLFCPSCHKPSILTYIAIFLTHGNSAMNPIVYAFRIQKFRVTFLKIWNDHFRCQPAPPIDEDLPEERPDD

chemical smiles: Clc1ccc(OCCCOc2ccccc2-c2nc3ccccc3s2)c2ncccc12
assay target: hA1AR (Homo sapiens)
Ki: > 100 µM
//
chemical smiles: c1ccc(-c2nc3ccccc3s2)c(OCCOc2cccc3cccnc23)c1
assay target: hA1AR (Homo sapiens)
Ki: > 100 µM
//
chemical smiles: Clc1cc(I)c(OCCCOc2ccccc2-c2nc3ccccc3s2)c2ncccc12
assay target: hA1AR (Homo sapiens)
Ki: > 100 µM
//
chemical smiles: c1ccc(-c2nc3ccccc3s2)c(OCCCCOc2cccc3cccnc23)c1
assay target: hA1AR (Homo sapiens)
Ki: 29.7 µM
//
chemical smiles: Brc1cc(Br)c2cccnc2c1OCCOc1ccccc1-c1nc2ccccc2s1
assay target: hA1AR (Homo sapiens)
Ki: > 100 µM
//
chemical smiles: Clc1cc(I)c(OCCOc2ccccc2-c2nc3ccccc3s2)c2ncccc12
assay target: hA1AR (Homo sapiens)
Ki: > 100 µM
//
chemical smiles: Clc1ccc(OCCCCOc2ccccc2-c2nc3ccccc3s2)c2ncccc12
assay target: hA1AR (Homo sapiens)
Ki: > 100 µM

----------
Biological target: hA3AR (Homo sapiens, UniProt P0DMS8)
Sequence (P0DMS8 1-318): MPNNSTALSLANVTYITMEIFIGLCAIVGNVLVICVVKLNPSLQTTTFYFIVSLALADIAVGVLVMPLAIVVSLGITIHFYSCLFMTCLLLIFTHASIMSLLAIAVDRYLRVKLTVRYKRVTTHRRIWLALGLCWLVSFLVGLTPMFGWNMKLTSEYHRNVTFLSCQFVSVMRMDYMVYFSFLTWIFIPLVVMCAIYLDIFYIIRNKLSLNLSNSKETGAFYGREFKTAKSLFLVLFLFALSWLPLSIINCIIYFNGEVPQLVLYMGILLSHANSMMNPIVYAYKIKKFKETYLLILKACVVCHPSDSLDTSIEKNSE
pKi: −log10 of the molar value.

chemical smiles: Clc1ccc(OCCOc2ccccc2-c2nc3ccccc3s2)c2ncccc12
pKi: 4.52
//
chemical smiles: c1ccc(-c2nc3ccccc3s2)c(OCCCOc2cccc3cccnc23)c1
pKi: 5.42

----------
Target: hA2BAR (Homo sapiens, UniProt P29275)
Sequence (P29275 1-332): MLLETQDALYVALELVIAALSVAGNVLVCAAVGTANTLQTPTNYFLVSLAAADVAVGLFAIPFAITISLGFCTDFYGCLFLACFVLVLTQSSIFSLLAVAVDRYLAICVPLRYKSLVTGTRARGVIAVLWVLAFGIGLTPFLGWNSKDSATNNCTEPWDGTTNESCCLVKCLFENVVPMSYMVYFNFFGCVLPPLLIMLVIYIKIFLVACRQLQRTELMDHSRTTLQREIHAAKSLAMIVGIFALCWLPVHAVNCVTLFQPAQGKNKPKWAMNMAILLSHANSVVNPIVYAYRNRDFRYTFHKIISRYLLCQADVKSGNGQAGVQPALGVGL
Assay: Inhibition of NECA-stimulated adenylyl cyclase activity in CHO cells expressing hA2BAR
Details: read-out: Ki hA2B (95% CI)
pKi: −log10 of the molar value.

chemical smiles: Clc1cc(I)c(OCCCOc2ccccc2-c2nc3ccccc3s2)c2ncccc12
pKi: < 4.70
--
chemical smiles: Clc1cc(I)c(OCCCCOc2ccccc2-c2nc3ccccc3s2)c2ncccc12
pKi: < 4.52
--
chemical smiles: c1ccc(-c2nc3ccccc3s2)c(OCCOc2cccc3cccnc23)c1
pKi: < 4.52

----------
Biological target: UniProtKB P29275
Sequence (P29275 1-332): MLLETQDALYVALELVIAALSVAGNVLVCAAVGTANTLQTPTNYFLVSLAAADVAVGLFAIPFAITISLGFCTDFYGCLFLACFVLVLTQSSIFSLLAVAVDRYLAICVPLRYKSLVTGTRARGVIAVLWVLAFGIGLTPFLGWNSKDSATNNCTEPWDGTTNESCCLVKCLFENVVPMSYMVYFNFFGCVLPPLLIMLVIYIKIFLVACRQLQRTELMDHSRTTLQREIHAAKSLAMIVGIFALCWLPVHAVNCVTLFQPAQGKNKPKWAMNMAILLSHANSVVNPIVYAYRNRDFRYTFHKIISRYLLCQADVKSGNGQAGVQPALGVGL
Experiment: Inhibition of NECA-stimulated adenylyl cyclase activity in CHO cells expressing hA2BAR
Details: read-out: Ki hA2B (95% CI)
pKi: −log10 of the molar value.
Below is a list of entries, each paired with its recorded pKi value.

chemical smiles: c1ccc(-c2nc3ccccc3s2)c(OCCCCOc2cccc3cccnc23)c1
pKi: < 4.70
//
chemical smiles: Brc1cc(Br)c2cccnc2c1OCCCOc1ccccc1-c1nc2ccccc2s1
pKi: < 4.52
//
chemical smiles: c1ccc(-c2nc3ccccc3s2)c(OCCCOc2cccc3cccnc23)c1
pKi: < 4.52
//
chemical smiles: Clc1ccc(OCCCOc2ccccc2-c2nc3ccccc3s2)c2ncccc12
pKi: < 4.70
//
chemical smiles: Brc1cc(Br)c2cccnc2c1OCCOc1ccccc1-c1nc2ccccc2s1
pKi: < 4.70
//
chemical smiles: Brc1cc(Br)c2cccnc2c1OCCCCOc1ccccc1-c1nc2ccccc2s1
pKi: < 4.70
//
chemical smiles: Clc1ccc(OCCCCOc2ccccc2-c2nc3ccccc3s2)c2ncccc12
pKi: < 5.00
//
chemical smiles: Clc1cc(I)c(OCCOc2ccccc2-c2nc3ccccc3s2)c2ncccc12
pKi: < 4.70
//
chemical smiles: Clc1ccc(OCCOc2ccccc2-c2nc3ccccc3s2)c2ncccc12
pKi: < 4.70

----------
Record: Ki reported on hA2AAR (Homo sapiens).
Sequence (P29274 whole entry): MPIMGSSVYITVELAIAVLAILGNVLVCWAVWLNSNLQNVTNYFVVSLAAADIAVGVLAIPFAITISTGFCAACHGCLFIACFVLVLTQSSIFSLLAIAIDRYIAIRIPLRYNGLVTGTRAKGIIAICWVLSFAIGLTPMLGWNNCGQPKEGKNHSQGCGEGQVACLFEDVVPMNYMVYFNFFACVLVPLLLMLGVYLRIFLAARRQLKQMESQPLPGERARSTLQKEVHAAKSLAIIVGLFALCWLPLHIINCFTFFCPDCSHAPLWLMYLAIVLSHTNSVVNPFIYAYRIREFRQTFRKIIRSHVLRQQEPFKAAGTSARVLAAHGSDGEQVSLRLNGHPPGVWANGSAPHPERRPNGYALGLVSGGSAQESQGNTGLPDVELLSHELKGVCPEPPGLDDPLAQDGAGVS

chemical smiles: Brc1cc(Br)c2cccnc2c1OCCOc1ccccc1-c1nc2ccccc2s1
Ki: 17.2 µM

chemical smiles: Clc1cc(I)c(OCCOc2ccccc2-c2nc3ccccc3s2)c2ncccc12
Ki: > 20 µM

chemical smiles: Clc1ccc(OCCOc2ccccc2-c2nc3ccccc3s2)c2ncccc12
Ki: 32.8 µM

chemical smiles: Brc1cc(Br)c2cccnc2c1OCCCCOc1ccccc1-c1nc2ccccc2s1
Ki: > 20 µM

chemical smiles: Brc1cc(Br)c2cccnc2c1OCCCOc1ccccc1-c1nc2ccccc2s1
Ki: > 20 µM

chemical smiles: Clc1ccc(OCCCOc2ccccc2-c2nc3ccccc3s2)c2ncccc12
Ki: > 20 µM
